# study-system: G protein-activated inward rectifier potassium channel 2 (Homo sapiens) + G protein-activated inward rectifier potassium channel 1 (Homo sapiens) (UniProt P48051+P48549)
# Sequence (P48051 whole entry, looked up): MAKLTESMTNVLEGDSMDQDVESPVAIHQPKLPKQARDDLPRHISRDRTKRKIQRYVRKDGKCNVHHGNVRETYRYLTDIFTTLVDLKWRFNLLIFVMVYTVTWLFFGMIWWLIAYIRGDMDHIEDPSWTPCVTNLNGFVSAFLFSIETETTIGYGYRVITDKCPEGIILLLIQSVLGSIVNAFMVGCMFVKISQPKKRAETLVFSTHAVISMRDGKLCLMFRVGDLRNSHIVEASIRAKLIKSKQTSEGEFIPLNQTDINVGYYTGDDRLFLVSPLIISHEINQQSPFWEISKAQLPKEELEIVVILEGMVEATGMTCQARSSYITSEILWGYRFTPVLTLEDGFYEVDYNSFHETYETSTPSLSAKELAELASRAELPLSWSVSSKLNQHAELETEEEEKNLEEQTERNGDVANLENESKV
# Sequence (P48549 whole entry, looked up): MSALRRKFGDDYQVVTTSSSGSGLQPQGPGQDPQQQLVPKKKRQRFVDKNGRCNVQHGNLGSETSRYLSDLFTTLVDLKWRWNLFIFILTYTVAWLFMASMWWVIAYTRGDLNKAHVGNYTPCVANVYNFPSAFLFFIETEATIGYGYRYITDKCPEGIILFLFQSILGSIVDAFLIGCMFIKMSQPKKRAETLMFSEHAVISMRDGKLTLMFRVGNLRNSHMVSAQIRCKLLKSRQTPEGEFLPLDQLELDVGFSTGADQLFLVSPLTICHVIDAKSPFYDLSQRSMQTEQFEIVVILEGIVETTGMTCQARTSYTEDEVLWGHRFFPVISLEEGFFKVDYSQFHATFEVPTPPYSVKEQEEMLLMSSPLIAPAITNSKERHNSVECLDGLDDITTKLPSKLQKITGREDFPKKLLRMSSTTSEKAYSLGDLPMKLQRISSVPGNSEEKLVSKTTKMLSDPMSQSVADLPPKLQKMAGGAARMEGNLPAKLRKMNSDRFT
# assay-protocol: GIRK1/2 thallium flux modulators, retest, confirmation, cell-based, HEK293 rmGlu8/hGIRK1/2, FluoZin-2 (AID 623911)
# cond: HEK293 rmGlu8/hGIRK1/2, thallium flux FluoZin-2; actives lie on both sides; glutamate co-added at its EC20 level
Among all 2,100 compounds or so, about 770 (37%) were called active.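 Rule for the calls: active = by-eye trace score of 1 for enhancers or -1 for inhibitors, so actives lie on both sides (some results past the limit were not filed as active); inactive = score 0, or 3 fluorescent, or 4 baseline rise.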 The list shows a part of the results.
The reply should name one outcome from active, inactive

What was the test verdict on "Cc1ccc(NC(=S)c2nc3ccccc3[nH]2)c(C)c1" ?
active

What was the test verdict on Cc1oc(-c2cccc(Cl)c2)nc1CN1CCCC(C(=O)NCc2ccco2)C1 (configuration not stated) ?
active

Now examine the next entry.
What was the test verdict on "O=C(Cc1ccccc1)Nc1nc(-c2cccs2)cs1" ?
inactive

Where do these numbers come from? They come from PubChem BioAssay AID623911.
